- Study system: 17-beta-hydroxysteroid dehydrogenase type 1 (Homo sapiens) (UniProt P14061)
- Sequence (whole entry): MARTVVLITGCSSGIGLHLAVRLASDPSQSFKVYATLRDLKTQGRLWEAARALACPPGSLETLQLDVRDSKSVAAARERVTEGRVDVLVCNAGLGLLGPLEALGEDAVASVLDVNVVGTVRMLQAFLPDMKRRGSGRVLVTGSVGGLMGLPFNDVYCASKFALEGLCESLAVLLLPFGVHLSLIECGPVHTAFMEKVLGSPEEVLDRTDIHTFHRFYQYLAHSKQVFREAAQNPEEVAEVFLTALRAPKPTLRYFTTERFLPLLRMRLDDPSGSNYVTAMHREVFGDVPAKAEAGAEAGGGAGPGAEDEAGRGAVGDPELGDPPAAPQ
- Measurement notes: Inhibition of human placental 17beta-HSD1 assessed as conversion of [3H]estrone to [3H]17beta-estradiol at 1 uM
Label false if inhibition falls below 70%; label true in every other case.

Check the entry Cc1nnc(NC(=O)c2c(O)ccc3cc(-c4cccc(O)c4)ccc23)s1 : does inhibition equal or exceed 70%?
true

Check the entry Cc1ccc(S(=O)(=O)c2c(O)ccc3cc(-c4cccc(O)c4)ccc23)cc1 : does inhibition equal or exceed 70%?
true

Check the entry N#Cc1cc(-c2cccc(O)c2)cc2ccc(O)cc12 : does inhibition equal or exceed 70%?
false

Check the entry N#Cc1cc(O)cc2ccc(-c3cccc(O)c3)cc12 : does inhibition equal or exceed 70%?
true

Check the entry O=S(=O)(c1ccccc1)c1c(O)ccc2cc(-c3cccc(O)c3)ccc12 : does inhibition equal or exceed 70%?
false

====

- Measurement notes: Terminal half life in Wistar rat at 10 mg/kg, po
- Format: ADME, organism-based
- Parameters: dose 10 mg/kg, route oral
- Experimental parameters: in vivo
Measurement name: half-life (h)
Write the value in h as a bare number.

Specify reported half-life for the compound shown: Oc1cccc(-c2ccc3cc(O)ccc3c2)c1
4

Specify reported half-life for the compound shown: Oc1cccc(-c2ccc3c(-c4ccccc4)c(O)ccc3c2)c1
6

====

- Measurement notes: Tmax in Wistar rat at 10 mg/kg, po
- Format: ADME, organism-based
- Design: dose 10 mg/kg, route oral
- Experimental parameters: in vivo
Measurement name: Tmax (h)
Write the value in h as a bare number.

Specify reported Tmax for the compound shown: Oc1cccc(-c2ccc3c(-c4ccccc4)c(O)ccc3c2)c1
4

Specify reported Tmax for the compound shown: Oc1cccc(-c2ccc3cc(O)ccc3c2)c1
6

====

I'd be grateful if you could share measured Cmax for these entries.
- Measurement notes: Cmax in Wistar rat at 10 mg/kg, po
- Type: ADME, organism-based
- Design: dose 10 mg/kg, route oral
- Experimental parameters: in vivo
// return the numeric value with its unit appended

Specify reported Cmax for the molecule shown: Oc1cccc(-c2ccc3cc(O)ccc3c2)c1
2230 ng/mL

Specify reported Cmax for the molecule shown: Oc1cccc(-c2ccc3c(-c4ccccc4)c(O)ccc3c2)c1
860 ng/mL
